- target_or_system: SMYD3 (Homo sapiens (Human))
- Sequence (Q9H7B4 whole entry): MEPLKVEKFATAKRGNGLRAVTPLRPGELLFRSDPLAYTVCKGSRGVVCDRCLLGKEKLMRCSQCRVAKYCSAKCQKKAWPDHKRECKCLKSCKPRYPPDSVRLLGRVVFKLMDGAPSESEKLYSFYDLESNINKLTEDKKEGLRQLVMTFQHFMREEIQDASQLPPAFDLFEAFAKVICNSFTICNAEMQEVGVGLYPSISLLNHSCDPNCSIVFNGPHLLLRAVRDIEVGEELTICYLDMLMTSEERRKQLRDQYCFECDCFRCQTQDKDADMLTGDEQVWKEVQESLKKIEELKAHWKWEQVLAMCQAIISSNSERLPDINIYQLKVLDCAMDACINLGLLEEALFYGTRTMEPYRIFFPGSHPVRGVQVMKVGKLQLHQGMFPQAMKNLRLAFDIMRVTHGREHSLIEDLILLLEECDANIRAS
- assay_protocol: SMYD3 cell assay (Trimethyl-MEKK2 In-Cell Western in 293T/17 cells)
- Type: cell-based
- experimental_context: read-out: SMYD3 Cell IC50*
- Description: Trimethyl-MEKK2-in-Cell Western Assay MEM/Glutamax medium, Optimem Reduced Serum medium, penicillin-streptomycin, 0.05% trypsin and 1×D-PBS were purchased from Life Technologies, Grand Island, N.Y., USA. […] Plasmids were prepared for delivery to cells by first mixing 1350 μL Opti-MEM with Fugene (81 μL) in a sterile Eppendorf and incubated for five minutes at room temperature (RT). […] Room temperature MEM+10% Tet system FBS was added and cells were mixed gently, and counted using the Vi-cell. […]
measured_quantity: IC50 (µM)

{"molecule": "O=C(N[C@H]1CCN(S(=O)(=O)N2CCNCC2)[C@@H](Cc2ccccc2)C1)c1cc(C2CC2)on1", "result_value": 1.2}
{"molecule": "CN(C1CCCNC1)S(=O)(=O)N1[C@@H]2CC[C@H]1C[C@@H](NC(=O)c1cc(C3CC3)on1)C2 (some centres unmarked)", "result_value": 0.395}
{"molecule": "O=C(N[C@H]1C[C@H]2CC[C@@H](C1)N2S(=O)(=O)N1CCC(NCCN2CCCC2)CC1)c1cc(C2CC2)on1", "result_value": 0.282}
{"molecule": "C[C@H]1C[C@@H](NC(=O)c2cc(C3CC3)on2)CCN1S(=O)(=O)N1C2CNCC1C2", "result_value": 0.15}
{"molecule": "O=C(N[C@H]1C[C@H]2CC[C@@H](C1)N2S(=O)(=O)N1CC2CCC(C1)N2Cc1ccccc1)c1cc(C2CC2)on1", "result_value": 0.395}
{"molecule": "CN(C)[C@H]1CC[C@@H](S(=O)(=O)N2[C@@H]3CC[C@H]2C[C@@H](NC(=O)c2cc(C4CC4)on2)C3)CC1", "result_value": 0.0255}
{"molecule": "CC[C@@H]1C[C@H](NC(=O)c2cc(C3CC3)on2)CCN1S(=O)(=O)CC1CCN(C)CC1", "result_value": 0.0144}
{"molecule": "C[C@H](C1CCN(C)CC1)S(=O)(=O)N1[C@@H]2CC[C@H]1C[C@@H](NC(=O)c1cc(C3CC3)on1)C2", "result_value": 0.186}
{"molecule": "CN1CCC(CS(=O)(=O)N2[C@@H]3CC[C@H]2C[C@@H](NC(=O)c2cc(C4CC4)on2)C3)CC1", "result_value": 0.0192}
{"molecule": "COCCN(C)C1CCN(S(=O)(=O)N2CC[C@H](NC(=O)c3cc(C4CC4)on3)C[C@@H]2C)CC1", "result_value": 0.125}
{"molecule": "CC(C)CNC1CCN(S(=O)(=O)N2[C@@H]3CC[C@H]2C[C@@H](NC(=O)c2cc(C4CC4)on2)C3)CC1", "result_value": 0.071}
{"molecule": "O=C(N[C@H]1C[C@H]2CC[C@@H](C1)N2S(=O)(=O)[C@H]1CC[C@@H](NCCO)CC1)c1cc(C2CC2)on1", "result_value": 0.0194}
{"molecule": "O=C(N[C@H]1C[C@H]2CC[C@@H](C1)N2S(=O)(=O)N1CC2CCC(C1)N2CCc1ccccc1)c1cc(C2CC2)on1", "result_value": 0.844}
{"molecule": "C[C@@H](N)c1ccc(S(=O)(=O)N2[C@@H]3CC[C@H]2C[C@@H](NC(=O)c2cc(C4CC4)on2)C3)cc1", "result_value": 0.494}
